- TARGET: Leukotriene B4 receptor 1 (Mus musculus)
- Sequence (O88855 whole entry): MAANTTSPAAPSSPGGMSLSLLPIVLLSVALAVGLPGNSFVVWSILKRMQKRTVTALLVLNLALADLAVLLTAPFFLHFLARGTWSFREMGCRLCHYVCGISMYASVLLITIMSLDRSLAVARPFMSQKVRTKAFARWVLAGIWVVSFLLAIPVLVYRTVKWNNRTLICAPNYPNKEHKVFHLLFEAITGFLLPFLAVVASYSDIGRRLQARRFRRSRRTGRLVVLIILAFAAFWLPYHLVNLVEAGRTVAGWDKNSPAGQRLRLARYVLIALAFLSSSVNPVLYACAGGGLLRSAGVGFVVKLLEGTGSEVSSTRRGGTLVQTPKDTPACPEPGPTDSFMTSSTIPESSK
- ASSAY SUMMARY: Tested for antagonistic activity in mouse spleen membrane against LTB4 receptor
pIC50: −log10 of the molar value.
PROPERTY LABEL: pIC50

>>> print(df.to_string())
                        structure_as_smiles  property_label  measurement
0  O=C(O)C1(c2ccc3c(c2)OC[C@H](Cc2ccc(-c4ccccc4)cc2)[C@H]3O)CCCC1           pIC50         7.52

Cited source: ChEMBL document CHEMBL1127793
